Reported protein stability index values follow for various variants
B1: SLC6A17 (parent)
chain: KAVEEELDAEDRPAWNSKLQYILA

# Variants of: B1
# assay method text: protein stability index of a GFP-peptide fusion (GPS, HEK-293T) (PSI 1-6); higher = more stable;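 further: lentivirally expressed fusions sorted by FACS into six bins by GFP to DsRed ratio, PSI derived from sequencing read proportions per bin multiplied by bin number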
# experimental conditions: c terminus: a fixed tail appended
readout kind: protein stability index

1) KAVEEELDAEDRPAWNSKLQYILH [A24H] :: 2.15
2) KAVEEELDAEDRPAWNSMLQYILA [K18M] :: 2.27
3) KAQEEELDAEDRPAWNSKLQYILA [V3Q] :: 2.91
4) KAVEEELDNEDRPAWNSKLQYILA [A9N] :: 2.83
5) KAVEEELDAEDRPAWNSKLQYILT [A24T] :: 2.85
6) KAVEEELDAEDRPAWNSKDQYILA [L19D] :: 4.1
7) KMVEEELDAEDRPAWNSKLQYILA [A2M] :: 2.43
8) SAVEEELDAEDRPAWNSKLQYILA [K1S] :: 3.24
9) KAVEEELDAEDRPAWNSKLQYILF [A24F] :: 2.73
10) KAVPEELDAEDRPAWNSKLQYILA [E4P] :: 2.54
11) KAVFEELDAEDRPAWNSKLQYILA [E4F] :: 1.43
12) KAVEEELNAEDRPAWNSKLQYILA [D8N] :: 2.46
13) KAVEEELDAEDRPAANSKLQYILA [W15A] :: 3.89
14) KAVEEELDAEDRPAWNSKLQLILA [Y21L] :: 2.83
15) KAVEEELDAEDRPAWNTKLQYILA [S17T] :: 2.25
16) KAVEEELDAEDGPAWNSKLQYILA [R12G] :: 2.32
17) KAVEEELDAEDRPAWNSKLQNILA [Y21N] :: 3.42
18) KAVEEEEDAEDRPAWNSKLQYILA [L7E] :: 3.21
19) KAVEEELDAEDRPAWNSKLQYTLA [I22T] :: 4.4
20) KAVEEELDAEDRPAWNYKLQYILA [S17Y] :: 2.16
21) KAVEEEYDAEDRPAWNSKLQYILA [L7Y] :: 2.51
22) KAVEGELDAEDRPAWNSKLQYILA [E5G] :: 1.89

Just for reference, the supplement of paper PMC10567573 is where these values come from.
